Exercise: for every item that follows, state its recorded half-life.
Assay Name: In vitro stability in rat liver S9 fraction with NADPH-regenerating system
Format: in vitro ADME
Condition: male, Wistar, rat, s9, pH 7.4

// field: half-life; key: `CC(C)NC(=O)Oc1cccc(-c2ccccc2)c1` ; value = < 2 min

// field: half-life; key: `CCCCNC(=O)Oc1cccc(-c2ccccc2)c1` ; value = < 2 min

// field: half-life; key: `O=C(NC1Cc2ccccc2C1)Oc1cccc(-c2ccccc2)c1` ; value = > 60 min
